ASSAY COMMENT: basal MM1S mitochondrial membrane potential changes, profiling panel, cell-based, JC-1 fluorescence, 24 h, 100 nL compound (AID 1170); also: test concentration not given here
CONDITION SUMMARY: higher = more signal
Classify as follows. Reported z-score greater than or equal to -0.03: Condition met. Reported z-score below: Condition not met.

[ask] Check if z-score >= -0.03 (inclusive). Item: C=CCNC(=O)[C@H]1[C@@H]2C(=O)O[C@@H](c3ccccc3)[C@@H](c3ccccc3)N2[C@@H](c2ccc(O)cc2)[C@]12C(=O)N(C(=O)OCCOC)c1ccc(C#CC3=CCCCC3)cc12
[reply] Condition not met

[ask] Now consider CCCCCN1CC=CC23O[C@@H]4C=CCOC(=O)[C@@H]4[C@H]2C(=O)N(CCCCCCO)[C@@H]3C1=O (some centres undefined) .
[reply] Condition not met

[ask] Now consider CS(=O)(=O)CCOC(=O)C1=CC(CCCO)=CC(c2cccs2)N(Cc2cccc(OC(F)(F)F)c2)C=C1C(=O)OCCS(C)(=O)=O (centres undefined) .
[reply] Condition not met

====

ASSAY COMMENT: PSAC antagonists in infected red cells, primary screen, cell-based, P. falciparum Indochina, OD700, 2 h (AID 1155);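 also: lysis reports solute entry through the parasite surface anion channel PSAC; channel blockers reduce lysis of infected cells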
CONDITION SUMMARY: P. falciparum Indochina infected erythrocytes, osmotic lysis OD700; higher = more signal, called active from +8 up or from −8 down
Readings of z-score for the listed molecules
Keep the answer to the number alone.

Illustrative cases are given below, each with its answer.
MOLECULE | ASSAY RESULT
C[C@@H](c1ccccc1)N1C(=O)[C@H]2[C@H]3[C@H](O)[C@H](O)CC(=NOC[C@@H](O)COCc4ccco4)[C@@H]3CC[C@H]2C1=O | 0.32
CO[C@@H]1COC(=O)CC=C[C@@H](C)[C@@H]2C=C[C@H](O)[C@@H](COC(=O)CCC[C@H]1C)O2 | -1.66
CC(C)CON=C1[C@H]2CCn3c(=O)n(-c4ccccc4)c(=O)n3[C@H]2[C@H](O)[C@@H]2O[C@H]12 | -0.2

[ask] Bench note: what z-score did COc1ccc(O[C@H]2C=C[C@@H](c3ccccc3)O[C@@H]2COC(=O)CCC(C)=NOC[C@@H](C)[C@H](OCc2ccccc2)C(C)C)cc1 show?
[reply] 0.55

[ask] Now consider CC(CCN1CCc2nc(-c3ccccc3)c(-c3ccccc3)cc2C1)=NO[C@@H](C)c1cn([C@H](CO)Cc2ccccc2)nn1 .
[reply] -1.89

[ask] Now consider CCOC(=O)NN=C1C[C@@H](O)[C@@H](O)[C@@H]2[C@@H]3C(=O)N(C(C)(C)C)C(=O)[C@@H]3CC[C@@H]12 .
[reply] -0.0313

[ask] Now consider COc1ccc(COC(=O)NN=C2C[C@@H](O)[C@@H](O)[C@@H]3[C@@H]4C(=O)N(Cc5ccc6c(c5)OCO6)C(=O)[C@@H]4CC[C@@H]23)cc1 .
[reply] 0.801

[ask] Now consider C[C@@H](c1ccccc1)N1C(=O)[C@H]2[C@H]3[C@H](O)[C@H](O)CC(=NNC(=O)OCc4ccccc4)[C@H]3CC[C@H]2C1=O .
[reply] 1.03

[ask] Now consider CCc1cc2c(nc1CC)CCN(CCC(C)=NOC[C@@H](O)COCc1ccco1)C2 .
[reply] -0.0282

[ask] Now consider CC(C)=CCCC(C)=CCON=C1C[C@@H](O)[C@@H](O)[C@@H]2[C@@H]3C(=O)N(C[C@@H]4CCCO4)C(=O)[C@@H]3CC[C@@H]12 .
[reply] 0.767

[ask] Now consider CC(C)(C)N1C(=O)[C@H]2[C@H]3[C@H](O)[C@H](O)CC(=NO[C@@H]4O[C@H](CO)[C@@H](O)[C@H](O)[C@H]4O)[C@@H]3CC[C@H]2C1=O .
[reply] 0.0656

[ask] Now consider C#C[C@@H](CC)O[Si](C#Cc1ccc(Oc2ccccc2)cc1)(C(C)C)C(C)C .
[reply] 1.4

[ask] Now consider COCCCNC(=O)[C@@]1(CCS(=O)(=O)c2ccccc2)N=C(c2ccc(OCCCO)cc2)O[C@H]1c1ccccc1 .
[reply] 21

[ask] Now consider CC(C)(C)N1CC=CC23O[C@@H]4C=CCCOC(=O)C4[C@H]2C(=O)N(CCCCCO)[C@@H]3C1=O (stereo not given in full) .
[reply] 0.396

[ask] Now consider CN1C(=O)C2C=CC(C(O)c3ccc(Br)cc3)N(N(c3ccccc3)c3ccccc3)C2C1=O (stereo not given) .
[reply] 3.08

====

TGT: Calmodulin-1 (Homo sapiens) (UniProt P0DP23)
ASSAY COMMENT: CALM1 binders on microarrays, EGTA buffer, profiling panel, biochemical, small-molecule microarray, Cy5-labelled CALM1 (AID 1111);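 also: labelled calmodulin applied in Tris saline Tween buffer holding calcium plus EGTA and DTT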
CONDITION SUMMARY: Cy5-CALM1 binding fluorescence, higher = more signal
MEASURE NAME: composite z-score
Keep the answer to the number alone.

MOLECULE | composite z-score
CC(CCN1CCc2nc(-c3ccccc3)c(-c3ccccc3)cc2C1)=NOC[C@@H](C)[C@H](OCc1ccccc1)C(C)C | -0.607
COc1ccc([Si](C)(C)[C@H]2[C@H](CCO)O[C@@]3(C(=O)N(Cc4cccc(NC(=O)[C@H](C)O)c4)c4ccccc43)[C@@H]2C)cc1 | 0.922
COC(=O)[C@@H]1N=C(c2ccc(OCCCO)cc2)O[C@@H]1c1ccccc1N=[N+]=[N-] | 1.54
O=C1[C@H]2[C@H]3[C@H](O)[C@H](O)CC(=NO[C@@H]4O[C@H](CO)[C@@H](O)[C@H](O)[C@H]4O)[C@H]3CC[C@H]2C(=O)N1Cc1ccc2c(c1)OCO2 | -0.603
COC(=O)c1c(CC[C@@H](CO)NC(=O)N[C@H](Cc2ccccc2)Cn2cc(-c3ccccc3N)nn2)oc(C(C)=O)c1C(=O)OC | -0.0936
COCC(=C=CC[C@@H](O)c1ccccc1OCCO)CCO | 0.0775

[ask] Please provide the recorded composite z-score for O=C(NN=C1C[C@@H](O)[C@@H](O)[C@@H]2[C@@H]3C(=O)N(c4ccc(F)cc4F)C(=O)[C@@H]3CC[C@@H]12)OCc1ccccc1 , tested on Calmodulin-1 (Homo sapiens) (UniProt P0DP23).
[reply] -0.0007

[ask] Now consider C[C@@H]1C=CCC(=O)OC[C@H](C)C(=O)N2CCC[C@H]2C(=O)OC1 .
[reply] -0.725

[ask] Now consider COC(=O)C1=C(C)N(Cc2ccccc2)[C@]23O[C@](C(=O)OC)(C(=O)N2[C@@H]1c1ccccc1)[C@H]1CCOC(=O)[C@H]13 .
[reply] -0.348

[ask] Now consider Cn1cccc1C(O)C1C=CC2C(=O)NC(=O)C2N1Nc1ccccn1 (centres undefined) .
[reply] -0.0487

[ask] Now consider COc1ccc(COC(=O)NN=C2C[C@@H](O)[C@@H](O)[C@@H]3[C@@H]4C(=O)N(c5ccc(F)cc5F)C(=O)[C@@H]4CC[C@@H]23)cc1 .
[reply] 0.0539

[ask] Now consider CC(CCC(=O)OC[C@H]1O[C@H](C#Cc2ccccc2)C=C[C@@H]1Oc1ccc(C)cc1)=NOC[C@@H](O)[C@H]1O[C@@H]2OC(C)(C)O[C@@H]2[C@H]1O .
[reply] -0.873

[ask] Now consider NC(=O)NCC#Cc1ccc2c(c1)[C@]1(C(=O)N2)[C@H](c2ccc(O)cc2)N2[C@H](c3ccccc3)[C@H](c3ccccc3)OC(=O)[C@H]2[C@@H]1C(=O)N1CCCCCCC1 .
[reply] 0.822

[ask] Now consider Cn1c(=O)n2n(c1=O)[C@H]1[C@H](O)[C@@H]3O[C@@H]3C(=NOC[C@@H](O)COCc3ccco3)[C@H]1CC2 .
[reply] 0.132

====

Readings of composite Z-score for the listed compounds
ASSAY COMMENT: small-molecule microarray binders of probe aXIP, primary screen, biochemical, NeuroSMM set, 635/667 nm fluorescence (AID 1119);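 also: probe is the protein aXip251-270 applied at 1 µg/mL to compound-printed slides; binding of probe to printed compounds measured as 667 nm fluorescence plus signal to noise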
CONDITION SUMMARY: higher = more signal, called active from +8 up or from −8 down
Active and inactive are the calls of the source.

Illustrative cases are given below, each with its answer.
COMPOUND | composite Z-score
O=C1C[C@@H](O)[C@@H](O)[C@@H]2[C@@H]3C(=O)N(C4CCCCC4)C(=O)[C@@H]3CC[C@H]12 | -0.236 (inactive)
CC(CCN1CCc2nc(-c3ccccc3)c(-c3ccccc3)cc2C1)=NO[C@@H](C)c1cn([C@H](CO)Cc2ccccc2)nn1 | 0.715 (inactive)
Cn1c(=O)n2n(c1=O)[C@H]1[C@H](O)[C@@H]3O[C@@H]3C(=NOC[C@@H](O)COCc3ccco3)[C@H]1CC2 | -0.383 (inactive)
COC(=O)[C@@H]1N=C(c2ccc(OCCCO)cc2)O[C@@H]1c1ccccc1N=[N+]=[N-] | -0.384 (inactive)
C=C(COC)/C(=C/C[C@H](OC(=O)c1ccncc1)c1ccc(CO)o1)c1cc(C(=O)OC)ccc1OC | 0.515 (inactive)

[ask] Bench note: what composite Z-score did COC(=O)[C@@]1(Cc2ccc(F)cc2)[C@H]2c3cc(C(=O)N(C)C)n(Cc4ccc(OC)c(OC)c4)c3C[C@H]2CN1C(=O)c1ccccc1 show?
[reply] 0.206 (inactive)

[ask] Now consider COC(=O)[C@H](C)NC(=O)CCC1CC(OC(=O)NCc2cccc3ccccc23)CC2(CCCC(COC(=O)NCC3CCCCC3)O2)O1 (some centres not stated) .
[reply] -0.551 (inactive)

Source listed as PubChem BioAssay.
